Test: Metabolic stability test: liver microsomal stability assay
Format: in vitro ADME, mouse
Settings: mouse liver microsomes 0.5 mg protein/mL, compound 1 µM, absence of NADPH
Positions of bridges follow the written chain, without caps; N, C: chain ends. Non-standard residues stand in square brackets, D forms with d. Residues, ends and D or L forms follow the SMILES beside them. *: point of attachment. NMeF = CN[C@@H](Cc1ccccc1)C(=O)O; NMeI = CC[C@H](C)[C@H](NC)C(=O)O; NMeT = CN[C@H](C(=O)O)[C@@H](C)O; NMeD = CN[C@@H](CC(=O)O)C(=O)O; NMeL = CN[C@@H](CC(C)C)C(=O)O; NMeV = CN[C@H](C(=O)O)C(C)C; d(β3hA) = C[C@@H](N)CC(=O)O; NMeAbu = CC[C@H](NC)C(=O)O; NMeA = CN[C@@H](C)C(=O)O; Piperidide = C1CCN(*)CC1; dNMeA = CN[C@H](C)C(=O)O; Abu = CC[C@H](N)C(=O)O; Sar = CNCC(=O)O; tBu = CC(C)(C)*
Field 'label' (enum: Criterion met / Criterion not met). Set to Criterion met when Mouse Hepatic Microsome CLh,int NADPH(-) is strictly under 30 µL/min/mg Protein; else Criterion not met.

CC[C@@H]1NC(=O)[C@H](Cc2ccccc2)N(C)C(=O)[C@H](COC(C)(C)C)NC(=O)[C@H](CC(C)C)N(C)C(=O)[C@H](C)N(C)C(=O)[C@@H]2CCCN2C(=O)[C@H]([C@@H](C)O)NC(=O)[C@H](CC(C)C)N(C)C(=O)[C@H]([C@@H](C)CC)NC(=O)[C@H](Cc2ccccc2)N(C)C(=O)[C@H](C(C)C)NC(=O)[C@@H](C)N(C)C(=O)C[C@@H](C)NC(=O)[C@H](C(C)C)N(C)C1=O [pd012] (cyclo([Abu][NMeV][d(β3hA)][dNMeA]V[NMeF]I[NMeL]TP[NMeA][NMeL]S(tBu)[NMeF]))    Criterion met
CC[C@@H]1NC(=O)[C@H](Cc2ccccc2)N(C)C(=O)[C@H](CC(C)C)NC(=O)CNC(=O)[C@H]([C@@H](C)O)N(C)C(=O)[C@H](CC(C)C)N(C)C(=O)[C@H]([C@@H](C)CC)NC(=O)[C@H](Cc2ccccc2)N(C)C(=O)CN(C)C(=O)C[C@@H](C(=O)N2CCCCC2)NC(=O)[C@H](C(C)C)N(C)C(=O)[C@H](CC(C)C)NC(=O)[C@H](C(C)C)NC(=O)[C@H](C)N(C)C1=O [pd030] ([Sar][NMeF]I[NMeL][NMeT]GL[NMeF][Abu][NMeA]VL[NMeV]D-Piperidide; lactam N-14)    Criterion met
CC[C@H](C)[C@@H]1NC(=O)[C@H](CC(C)C)N(C)C(=O)[C@H](CC(C)C)NC(=O)[C@H](C)N(C)C(=O)C[C@@H](C(=O)N2CCCCC2)N(C)C(=O)[C@H](C)N(C)C(=O)[C@H](CC(C)C)NC(=O)[C@H](C(C)C)N(C)C(=O)[C@H](CC(C)C)N(C)C(=O)CNC(=O)[C@H]([C@@H](C)CC)N(C)C(=O)[C@H](Cc2ccccc2)N(C)C(=O)[C@H](C)NC(=O)[C@H](Cc2ccccc2)N(C)C1=O [pd079] ([NMeA]L[NMeL]I[NMeF]A[NMeF][NMeI]G[NMeL][NMeV]L[NMeA][NMeD]-Piperidide; lactam N-14)    Criterion not met

Turning to the following compound.
INPUT: Identify whether the compound CC[C@H](C)[C@@H]1NC(=O)[C@H](CC(C)C)N(C)C(=O)C[C@@H](C)NC(=O)[C@H](C(C)C)N(C)C(=O)[C@H](COC(C)(C)C)NC(=O)[C@H](CC)N(C)C(=O)[C@H](Cc2ccccc2)N(C)C(=O)[C@H](CC(C)C)NC(=O)[C@@H]2CCCN2C(=O)[C@H]([C@@H](C)O)N(C)C(=O)[C@H](CC(C)C)N(C)C(=O)[C@H](CC)N(C)C(=O)[C@H](CC(C)C)N(C)C1=O [pd139] (cyclo(I[NMeL][NMeAbu][NMeL][NMeT]PL[NMeF][NMeAbu]S(tBu)[NMeV][d(β3hA)][NMeL])) records Mouse Hepatic Microsome CLh,int NADPH(-) below 30 µL/min/mg Protein.
OUTPUT: Criterion met

====

Tested on: Caco-2 cells
Assay: Membrane permeability test using Caco-2 cells with preincubation
Format: in vitro ADME
Details: Caco-2 cells, preincubation 20 to 24 hours; apical FaSSIF/HBSS 1% DMSO pH 6.0, basal HBSS 4% BSA pH 7.4; basal sample at 180 minutes
Non-standard residues stand in square brackets, D forms with d. Residues, ends and D or L forms follow the SMILES beside them. *: point of attachment. NMeF = CN[C@@H](Cc1ccccc1)C(=O)O; NMeL = CN[C@@H](CC(C)C)C(=O)O; NMeV = CN[C@H](C(=O)O)C(C)C; d(β3hA) = C[C@@H](N)CC(=O)O; NMeA = CN[C@@H](C)C(=O)O; dNMeA = CN[C@H](C)C(=O)O; tBu = CC(C)(C)*
ENDPOINT_LABEL: Caco2 Papp (10^-6 cm/sec)

INPUT: # return Caco2 Papp (10^-6 cm/sec) for CC[C@H](C)[C@@H]1NC(=O)[C@@H]2CCCN2C(=O)[C@H](C(C)C)N(C)C(=O)[C@H](CC(C)C)NC(=O)[C@@H](C)N(C)C(=O)C[C@@H](C)NC(=O)[C@H](C(C)C)N(C)C(=O)[C@H](Cc2ccccc2)N(C)C(=O)[C@H](COC(C)(C)C)NC(=O)[C@H](CC(C)C)N(C)C(=O)[C@H](C)N(C)C(=O)[C@H](CC(C)C)N(C)C(=O)[C@H]([C@@H](C)O)NC(=O)[C@H](Cc2ccccc2)N(C)C1=O [pd054] (cyclo(I[NMeF]T[NMeL][NMeA][NMeL]S(tBu)[NMeF][NMeV][d(β3hA)][dNMeA]L[NMeV]P)) , test system: Caco-2 cells
OUTPUT: 0.49 10^-6 cm/sec

====

Assign Papp A→B to each entry below.
Assay: Membrane permeability test using Caco-2 cells with preincubation
Format: in vitro ADME
Details: Caco-2; preincubation 20 to 24 hours; Apical FaSSIF/HBSS pH 6.0, Basal HBSS 4% BSA pH 7.4; 180 minutes; read-out: Caco2 Papp
Starred links: 1 amine or outer side, 2 acyl side, 3 side chain; linkers in the order of their positions; H or OH if unused. Positions of bridges follow the written chain, without caps; N, C: chain ends. Non-standard residues stand in square brackets, D forms with d. Residues, ends and D or L forms follow the SMILES beside them. *: point of attachment. NMeF = CN[C@@H](Cc1ccccc1)C(=O)O; NMeGABA = CN(CCCC(=O)[*:2])[*:1]; NMeT = CN[C@H](C(=O)O)[C@@H](C)O; NMeD = CN[C@@H](CC(=O)O)C(=O)O; NMeL = CN[C@@H](CC(C)C)C(=O)O; NMeV = CN[C@H](C(=O)O)C(C)C; d(β3hA) = C[C@@H](N)CC(=O)O; NMeAbu = CC[C@H](NC)C(=O)O; NMeA = CN[C@@H](C)C(=O)O; Piperidide = C1CCN(*)CC1; Abu = CC[C@H](N)C(=O)O; tBu = CC(C)(C)*
Give bare numbers, in ×10⁻⁶ cm/s.

CC[C@H](C)[C@@H]1NC(=O)[C@H](C)N(C)C(=O)[C@H]([C@@H](C)O)N(C)C(=O)[C@H](CC(C)C)N(C)C(=O)[C@H]([C@@H](C)CC)NC(=O)[C@H](Cc2ccccc2)N(C)C(=O)[C@H](Cc2ccccc2)N(C)C(=O)[C@H](C)NC(=O)[C@H](COC(C)(C)C)NC(=O)[C@H](CC)N(C)C(=O)[C@H](C(C)C)NC(=O)CCCN(C)C(=O)C[C@@H](C)NC(=O)[C@H](C(C)C)N(C)C1=O [pd050] (cyclo(A[NMeF][NMeF]I[NMeL][NMeT][NMeA]I[NMeV][d(β3hA)][NMeGABA]V[NMeAbu]S(tBu)))    0.54

Now look at this one.
INPUT: Give recorded Papp A→B. CC[C@@H]1NC(=O)[C@H](CC(C)C)N(C)C(=O)C[C@@H](C(=O)N2CCCCC2)N(C)C(=O)[C@H](C(C)C)NC(=O)[C@H](CC(C)C)N(C)C(=O)[C@H](C)NC(=O)[C@H](CC)N(C)C(=O)[C@H](C(C)C)NC(=O)[C@H](CC(C)C)N(C)C(=O)[C@H](C)N(C)C(=O)[C@H](Cc2ccccc2)N(C)C(=O)[C@H](C(C)C)NC(=O)[C@@H]2CCCN2C(=O)[C@H](C(C)C)N(C)C1=O [pd078] ([NMeL][Abu][NMeV]PV[NMeF][NMeA][NMeL]V[NMeAbu]A[NMeL]V[NMeD]-Piperidide; lactam N-14)
OUTPUT: 2.75
